# SYSTEM: T1, recombinant human CD3 epsilon/gamma heterodimer (human, UniProt P07766 23-126; P09693 23-116)
# T1 construct: Recombinant heterodimer used as analyte in Octet; also called hCD3 E/G
# T1 sequence (P07766 23-126, chain 1 of 2): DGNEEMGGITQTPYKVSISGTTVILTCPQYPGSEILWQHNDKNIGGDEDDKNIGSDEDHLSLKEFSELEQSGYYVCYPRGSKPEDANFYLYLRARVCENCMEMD
# T1 sequence (P09693 23-116, chain 2 of 2): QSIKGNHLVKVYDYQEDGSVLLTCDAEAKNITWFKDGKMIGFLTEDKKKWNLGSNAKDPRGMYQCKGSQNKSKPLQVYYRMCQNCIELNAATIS
# ASSAY_DETAILS: BLI (Octet), mAb 5 ug/mL on FAB2G sensor, hCD3 E/G 200-50 nM;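 further: antibodies purified from hybridoma supernatants, measured by Octet binding to recombinant human CD3 protein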
pKd: −log10 of the molar value.
QUANTITY_MEASURED: pKd

binder="ABL-CD3-71 (antibody, V domains shown, mAb purified from hybridoma; chimeric AlivaMab IgG (human VH, CH1 and upper hinge; mouse middle hinge, CH2, CH3; human light chain)) VH: QVQLQESGPGLVKPSETLSLTCTVSGGSINSYYWSWIRQPAGKGLEWIGRIYTSGSTNYNPSLKSRVTMSVDTSKKQFSLKLSSVTAADTAVYYCARERISRLYFDYWGQGILVTVSS VL: NFMLTQPHSVSESPGKTVTISCTRSSGSIASNYVQWYQQRPGSSPTTVIYEDNQRPSGVPDRFSGSIDSSSNSASLTISGLKTEDEADYYCQSYDRSNRVFGGGTKLTVL" recorded_number=7.26
binder="ABL-CD3-70 (antibody, V domains shown, mAb purified from hybridoma; chimeric AlivaMab IgG (human VH, CH1 and upper hinge; mouse middle hinge, CH2, CH3; human light chain)) VH: EVQLVESGGGLVKPGGSLRLSCAASGFTFSTYIMNWVRQAPGKGLEWVSSITSSSSYIYYADSVKGRFTISRDNAKNSLYLQMNSLRAEDTAVYYCAREKWELLFFDYWGQGTLVTVSS VL: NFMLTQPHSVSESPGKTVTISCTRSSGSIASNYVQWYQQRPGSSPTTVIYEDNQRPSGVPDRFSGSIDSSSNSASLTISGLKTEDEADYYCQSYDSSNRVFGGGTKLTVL" recorded_number=8.31
binder="ABL-CD3-84 (antibody, V domains shown, mAb purified from hybridoma; chimeric AlivaMab IgG (human VH, CH1 and upper hinge; mouse middle hinge, CH2, CH3; human light chain)) VH: EVQLVESGGGLVKPGGSLRLSCAASGFTFSNFIMNWVRQAPGKGLEWVSSISGSSNYIYYADSVKGRFTISGDNAKNSLYLQMNSLRAEDTAVYYCAREKWVLLFFDYWGQGTLVTVSS VL: NFMLTQPHSVSESPGKTVTISCTRSSGSIASNYVQWYQQRPGSSPTTMIYEDTQRPSGVPDRFSGSIDSSSNSASLTISGLKTEDEADYYCQSYDSSNRVFGGGTKLTVL" recorded_number=6.84

This collection of values is drawn from patent US20260167721A1.
